# system: VtrA–VtrC periplasmic domain complex (heterodimer) (Vibrio parahaemolyticus, UniProt Q87GI3+Q87GI4, Q87GI3:Y81A)
# assay overview: biochemical
pKd: −log10 of the molar value.

| compound | pKd |
| --- | --- |
| C[C@H](CCC(=O)NCCS(=O)(=O)O)[C@H]1CC[C@H]2[C@@H]3CC[C@@H]4C[C@H](O)CC[C@]4(C)[C@H]3C[C@H](O)[C@]12C [TDC, taurodeoxycholate] | 5.92 |
| C[C@H](CCC(=O)O)[C@H]1CC[C@H]2[C@@H]3[C@H](O)C[C@@H]4C[C@H](O)CC[C@]4(C)[C@H]3CC[C@]12C [CDC, chenodeoxycholate] | 6.14 |

* * *

# system: VtrA–VtrC periplasmic domain complex (heterodimer) (Vibrio parahaemolyticus, UniProt Q87GI3+Q87GI4)
# Construct: gene VPA1333; periplasmic domains: VtrC residues 31-161 with N-terminal His6 tag, coexpressed with VtrA residues 161-253 (pACYC-Duet-VtrC/VtrA, E. coli BL21(DE3)); heterodimer, bile acid lies in the beta-barrel, contacts printed are VtrC residues
# assay overview: isothermal titration calorimetry; crystal structure of the complex also solved ([…] Å)
# Assay type: binding

| compound | output unit | Kd |
| --- | --- | --- |
| C[C@H](CCC(=O)O)[C@H]1CC[C@H]2[C@@H]3[C@H](O)C[C@@H]4C[C@H](O)CC[C@]4(C)[C@H]3CC[C@]12C [CDC, chenodeoxycholate] | nM | 310 |

* * *

Below, each of the molecules is paired with its reported Kd value.
# system: VtrA–VtrC periplasmic domain complex (heterodimer) (Vibrio parahaemolyticus, UniProt Q87GI3+Q87GI4)
# Construct: gene VPA1333; periplasmic domains: VtrC residues 31-161 with N-terminal His6 tag, coexpressed with VtrA residues 161-253 (pACYC-Duet-VtrC/VtrA, E. coli BL21(DE3)); heterodimer, bile acid lies in the beta-barrel, contacts printed are VtrC residues
# assay overview: isothermal titration calorimetry
# Format: binding

| molecule | Kd / nM |
| --- | --- |
| C[C@H](CCC(=O)NCCS(=O)(=O)O)[C@H]1CC[C@H]2[C@@H]3CC[C@@H]4C[C@H](O)CC[C@]4(C)[C@H]3C[C@H](O)[C@]12C [TDC, taurodeoxycholate] | 129 |
| C[C@H](CCC(=O)O)[C@H]1CC[C@H]2[C@@H]3[C@H](O)C[C@@H]4C[C@H](O)CC[C@]4(C)[C@H]3C[C@H](O)[C@]12C [CA, cholate] | 377 |
| C[C@H](CCC(=O)O)[C@H]1CC[C@H]2[C@@H]3CC[C@@H]4C[C@H](O)CC[C@]4(C)[C@H]3C[C@H](O)[C@]12C [DC, deoxycholate] | 232 |
| C[C@H](CCC(=O)NCC(=O)O)[C@H]1CC[C@H]2[C@@H]3[C@H](O)C[C@@H]4C[C@H](O)CC[C@]4(C)[C@H]3CC[C@]12C [GCDC, glycochenodeoxycholate] | 211 |

* * *

# system: VtrA–VtrC periplasmic domain complex (heterodimer) (Vibrio parahaemolyticus, UniProt Q87GI3+Q87GI4, Q87GI3:H50A)
# assay overview: biochemical

| compound | Kd (nM) |
| --- | --- |
| C[C@H](CCC(=O)NCCS(=O)(=O)O)[C@H]1CC[C@H]2[C@@H]3CC[C@@H]4C[C@H](O)CC[C@]4(C)[C@H]3C[C@H](O)[C@]12C [TDC, taurodeoxycholate] | 301 |
| C[C@H](CCC(=O)O)[C@H]1CC[C@H]2[C@@H]3[C@H](O)C[C@@H]4C[C@H](O)CC[C@]4(C)[C@H]3CC[C@]12C [CDC, chenodeoxycholate] | 904 |

The reported numbers originate from paper PMC10140157.
